test system: Zika virus NS2B-NS3 protease (linked construct); assay: Primary screen NINDS Rhodamine qHTS for Zika virus inhibitors (AID 1347160); conditions: purified NS2B-NS3 protease, Rhodamine110 substrate fluorescence; series mostly up to 57.1 µM; further: nearly all actives have a fitted effect of over 55% in size
Inconclusive results are not listed. The source made the active and inactive calls. The call rests on the fitted dose curve; in most records, active means well fitted inhibition curve with a large enough effect; inconclusive means small, poorly fitted or top-dose-only effect; inactive means no such curve, though single readings can be large or run the other way.
Your response should consist of one outcome taken from active, inactive

Exercise: Record request — test call for C[C@H]1CC[C@@]2(OC1)O[C@H]1CC3[C@@H]4CC[C@@H]5C[C@@H](O[C@@H]6O[C@H](CO)[C@@H](O[C@@H]7O[C@H](CO[C@@H]8OC[C@@H](O)[C@H](O)[C@H]8O)[C@@H](O[C@@H]8O[C@H](CO)[C@H](O)[C@H](O)[C@H]8O)[C@H](O)[C@H]7O)[C@H](O)[C@H]6O)CC[C@]5(C)C4CC[C@]3(C)[C@H]1[C@@H]2C (stereo not given in full)
Solution: inactive

Exercise: What do you get for Cn1c(=O)c(F)c(Nc2ccc(I)cc2F)c2c(=O)n(CC(O)CO)cnc21 (stereo not given) ?
Solution: inactive

Exercise: What do you get for Cc1cc(-c2ncc(-c3cccnc3)cc2/C=C/c2ccccc2)cnc1-c1cccnc1 ?
Solution: inactive

Exercise: What do you get for COc1cccc(-c2cc(F)ccc2C2Cc3nc(N)nc(C)c3C(=O)N2)n1 (stereo not given) ?
Solution: inactive

Exercise: What do you get for CN1CCN(C2CCN(C(=O)Nc3cc(Oc4ccc(NC(=O)C5(C(=O)Nc6ccc(F)cc6)CC5)c(F)c4)ccn3)CC2)CC1 ?
Solution: inactive

Exercise: What do you get for O=C(C1CCCCC1)N(CCN1CCN(c2ccccc2O)CC1)c1ccccn1 ?
Solution: inactive

Exercise: What do you get for COc1ccc(C(=O)O[C@H]2C=COC=C3C=C4C(=O)N(C)C(=S)C(=O)N4[C@@H]32)cc1Oc1cc(C=O)ccc1O ?
Solution: inactive

Exercise: What do you get for O=C(NC1(c2ccccc2)CC1)c1c(CN2CCC(N3CCCCC3)CC2)c(-c2cccc(C(F)(F)F)c2)nc2cc(Br)ccc12 ?
Solution: inactive

Exercise: What do you get for C=CC(=O)N1CCN(C(=O)CNc2cc(-c3ccccc3Cl)c(Cl)cc2OC)CC1 ?
Solution: inactive

Exercise: What do you get for CC1OC2OC(=O)C3(C)CC4C5(CO5)C5=CC(=O)OC(C)(C)C5=CC(=O)C4(C)C(C1=O)C23 (stereo not given) ?
Solution: active

Exercise: What do you get for Cc1c(C(=O)Nc2ccc(N3CCC(N4CCOCC4)CC3)c(C#N)c2)cnn1-c1ccc(Cl)cc1 ?
Solution: inactive

Exercise: What do you get for COC1=CC(=O)C[C@@H](C)[C@@]12Oc1c(Cl)c(OC)cc(OC)c1C2=O ?
Solution: inactive

Exercise: What do you get for NC(=O)CCCSc1nc(N)nc(-c2c(Cl)cc3c4c(cccc24)COC3)n1 ?
Solution: inactive

Exercise: What do you get for Nc1nc2c(s1)CCN(Cc1ccc(Cl)cc1)CC2 ?
Solution: inactive

Exercise: What do you get for CCOC(=O)CCNc1cc(N2CCc3ccccc3CC2)nc(-c2cccnc2)n1 ?
Solution: inactive

Exercise: What do you get for CC1(CO)CC2C(O)C3=C(CC(C)(O)C2C1)C(=O)OC3 (stereo not given) ?
Solution: inactive

Exercise: What do you get for COc1cccc(NCCC2(c3ccccc3)CC(C)(C)OC(C)(C)C2)c1 ?
Solution: inactive

Exercise: What do you get for Cn1c(CO)c(-c2ccccc2)c2cc([N+](=O)[O-])ccc21 ?
Solution: inactive

Exercise: What do you get for COC(=O)C(Cc1ccc(OCCn2c(=O)sc3cc(C(=O)c4ccccc4)ccc32)cc1)C(=O)OC ?
Solution: inactive

Exercise: What do you get for COc1cc(CCO)ccc1O[C@@H]1O[C@H](CO)[C@@H](O)[C@H](O)[C@H]1O ?
Solution: inactive
